A short record of IC50 observed with βPGM from L. lactis (Lactococcus lactis subsp. lactis, UniProt P71447) follows.
Answers are plain numbers, in µM.

Some solved cases for reference:
# compound, IC50 / µM
measured = [
    ("O=P(O)(O)OC[C@H]1O[C@@](O)(CF)[C@H](O)[C@@H](O)[C@@H]1O [compound 2]", 183),
    ("C[C@]1(O)O[C@H](COP(=O)(O)O)[C@@H](O)[C@H](O)[C@H]1O [compound 1, 1-Deoxy-α-D-gluco-heptulose 7-Phosphate]", 113),
]

# evaluate next
Lookup: Write IC50 of O=P(O)(O)OC[C@H]1O[C@@](O)(C(F)F)[C@H](O)[C@@H](O)[C@@H]1O [compound 3] ; system used: βPGM from L. lactis (Lactococcus lactis subsp. lactis, UniProt P71447)
Found: 214
